biological target: Kinase A and SpoOF (Bacillus subtilis); construct: made in house; host or cells: recombinant E. coli (overexpression); assay: Autophosphorylation of Kinase A and Transphosphorylation of SpoOF Assay (HPK in vitro assay); assay type: biochemical; conditions: inhibition of KinA autophosphorylation / SpoOF transphosphorylation, inhibitor concentrations from 1 to 500 μM
propertyName: log10(IC50) (log10 of the value in µM)
Base-10 log of IC50, unit µM.

Prompt: Answer with log10(IC50) of N=C(N)NCCc1ccc(OCCC2CN(Cc3ccc(Cl)cc3Cl)c3ccccc3O2)cc1 (centres unmarked) measured for Kinase A and SpoOF (Bacillus subtilis).
Completion: 1.23

Prompt: Answer with log10(IC50) of NCCc1cccc(OCCC2Oc3ccccc3N(Cc3cccc(Cl)c3)C2=O)c1 (centres unmarked) measured for Kinase A and SpoOF (Bacillus subtilis).
Completion: 1.81

Prompt: Answer with log10(IC50) of NCCc1cccc(OCCC2Oc3ccccc3N(Cc3cc(Cl)cc(Cl)c3)C2=O)c1 (centres unmarked) measured for Kinase A and SpoOF (Bacillus subtilis).
Completion: 1.51

Prompt: Answer with log10(IC50) of NCCc1cccc(OCCC2Oc3ccccc3N(Cc3ccc(Cl)cc3)C2=O)c1 (centres unmarked) measured for Kinase A and SpoOF (Bacillus subtilis).
Completion: 1.95

Prompt: Answer with log10(IC50) of CC(C)(C)OC(=O)N=C(NCCc1ccc(OCCC2Oc3ccccc3N(Cc3cccc(Cl)c3)C2=O)cc1)NC(=O)OC(C)(C)C (centres unmarked) measured for Kinase A and SpoOF (Bacillus subtilis).
Completion: 2.48

Prompt: Answer with log10(IC50) of NCc1ccc(OCCC2Oc3ccccc3N(Cc3ccc(Cl)cc3)C2=O)cc1 (centres unmarked) measured for Kinase A and SpoOF (Bacillus subtilis).
Completion: 1.67

Prompt: Answer with log10(IC50) of N=C(N)NCCc1ccc(OCCC2Oc3ccccc3N(Cc3ccccc3)C2=O)cc1 (centres unmarked) [Compound 28, Hydrate] measured for Kinase A and SpoOF (Bacillus subtilis).
Completion: 1.64

Prompt: Answer with log10(IC50) of CC(C)(C)OC(=O)NCCc1cccc(OCCC2Oc3ccccc3N(Cc3ccccc3Cl)C2=O)c1 (centres unmarked) measured for Kinase A and SpoOF (Bacillus subtilis).
Completion: 2.22

====

Target: Kinase A and SpoOF (Bacillus subtilis, UniProt P16497)
Construct: made in house; host or cells: recombinant E. coli (overexpression)
Sequence (P16497 1-606): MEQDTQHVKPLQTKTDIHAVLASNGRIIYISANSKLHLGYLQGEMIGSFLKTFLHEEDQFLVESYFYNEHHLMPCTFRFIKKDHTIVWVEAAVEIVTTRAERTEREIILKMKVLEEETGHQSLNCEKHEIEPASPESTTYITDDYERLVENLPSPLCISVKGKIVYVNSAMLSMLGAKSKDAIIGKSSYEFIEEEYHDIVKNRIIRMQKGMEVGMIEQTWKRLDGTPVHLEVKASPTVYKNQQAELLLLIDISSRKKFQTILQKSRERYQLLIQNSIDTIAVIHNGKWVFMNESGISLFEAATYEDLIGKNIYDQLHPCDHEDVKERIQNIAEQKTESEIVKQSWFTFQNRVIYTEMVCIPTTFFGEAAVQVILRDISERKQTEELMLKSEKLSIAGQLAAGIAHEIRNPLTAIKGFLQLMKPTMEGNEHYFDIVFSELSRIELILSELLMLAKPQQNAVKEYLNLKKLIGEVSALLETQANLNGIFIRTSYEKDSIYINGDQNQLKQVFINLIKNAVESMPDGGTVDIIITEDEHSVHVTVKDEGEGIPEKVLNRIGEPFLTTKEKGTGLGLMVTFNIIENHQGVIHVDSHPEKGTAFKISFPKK
Assay: Autophosphorylation of Kinase A and Transphosphorylation of SpoOF Assay (HPK in vitro assay)
Assay type: biochemical
Conditions: inhibition of KinA autophosphorylation / SpoOF transphosphorylation, inhibitor concentrations from 1 to 500 μM
The following ranges of IC50 define the classes used here: low (below 30 µM), moderate (30 µM to below 70 µM), high (70 µM or more)

Prompt: # bin label for Cc1ccc2c(c1)N(Cc1cccc(Cl)c1)C(=O)C(CCOc1ccc(CCNC(=N)N)cc1)O2 (stereo not shown) [Compound 24]
Completion: moderate

Prompt: # bin label for N=C(N)NCc1ccc(OCCC2CN(Cc3ccccc3Cl)c3ccccc3O2)cc1 (stereo not shown) [Compound 145]
Completion: low

Prompt: # bin label for N=C(N)NCCc1ccc(OCCC2Oc3ccccc3N(Cc3cccc(F)c3)C2=O)cc1 (stereo not shown) [Compound 31]
Completion: moderate

Prompt: # bin label for CC(C)(C)OC(=O)N=C(NCc1ccc(OCCC2Oc3ccccc3N(Cc3cccc(Cl)c3)C2=O)cc1)NC(=O)OC(C)(C)C (stereo not shown) [Compound 77]
Completion: moderate

Prompt: # bin label for CC(C)(C)OC(=O)NCCc1ccc(OCCC2Oc3ccccc3N(Cc3cccc(Cl)c3)C2=O)cc1 (stereo not shown) [Compound 144]
Completion: high

Prompt: # bin label for Cc1ccc(CN2CC(CCOc3ccc(CCNC(=N)N)cc3)Oc3ccccc32)cc1 (stereo not shown) [Compound 66]
Completion: low

Prompt: # bin label for CC(C)(C)OC(=O)N=C(NCCc1ccc(OCCC2Oc3ccccc3N(Cc3ccccc3)C2=O)cc1)NC(=O)OC(C)(C)C (stereo not shown) [Compound 27]
Completion: high

Prompt: # bin label for N=C(N)NCCc1ccc(OCCC2Oc3c(Cl)cc(Cl)cc3N(Cc3cccc(Cl)c3)C2=O)cc1 (stereo not shown) [Compound 57]
Completion: low

Prompt: # bin label for N=C(N)NCCc1ccc(OCCC2Oc3ccccc3N(Cc3csc(Cl)c3)C2=O)cc1 (stereo not shown) [Compound 48]
Completion: low

Prompt: # bin label for COc1ccc(CN2C(=O)C(CCOc3ccc(CCNC(=NC(=O)OC(C)(C)C)NC(=O)OC(C)(C)C)cc3)Oc3ccccc32)cc1 (stereo not shown) [Compound 140]
Completion: high

Prompt: # bin label for N=C(N)NCCc1ccc(OCCC2Oc3ccccc3N(Cc3ccc4ccccc4c3)C2=O)cc1 (stereo not shown) [Compound 45]
Completion: low

Prompt: # bin label for CN1C(=O)C(CCOc2ccc(CCNC(=NC(=O)OC(C)(C)C)NC(=O)OC(C)(C)C)cc2)Oc2ccccc21 (stereo not shown) [Compound 59]
Completion: high

Prompt: # bin label for CC(C)(C)OC(=O)NCCc1ccc(OCCC2Oc3ccccc3N(Cc3ccccc3Cl)C2=O)cc1 (stereo not shown) [Compound 17]
Completion: high

Prompt: # bin label for N=C(N)NCc1ccc(OCCC2Oc3ccccc3N(Cc3ccc(Cl)cc3)C2=O)cc1 (stereo not shown) [Compound 21]
Completion: low
